# System: UACC-62 melanoma
# Test Method Notes: NCI tumour cell line growth inhibition, 48 h; in the data active means GI50 below about 0.43 µM; inactive means the rest
Please answer using one outcome listed in yes (1) (active), no (0) (inactive)

INSERT INTO measurements (compound, group_label) VALUES
  ('O=C(/C=C/c1ccccc1)n1c(-c2ccc(Cl)cc2)nc2ccccc21', 'no (0)'),
  ('Cc1cc(CC(C)CC(C)(C)C)n(O)c(=O)c1 (centres undefined) (tested in a mixture with another compound)', 'yes (1)'),
  ('CC(C)(C)CC(C)(C)NCc1cc(C(C)(C)C)cc(CNC(C)(C)CC(C)(C)C)c1O', 'no (0)');

--- query ---
Qu. Which outcome was assigned to CCC(CNc1cc(OC)cc2cccnc12)NC1CCCCC1 (centres undefined) in this test?
Ans. no (0)

---

# Tested on: 786-0 renal
# Test Method Notes: NCI tumour cell line growth inhibition, 48 h
Listing of recorded TGI by entry.

Worked examples, 8 molecules total:
INSERT INTO measurements (molecule, observed) VALUES
  ('Nc1nn2c(nc(N)c3c(N)[nH]nc32)c1N=Nc1ccc(Br)cc1', '> 95.3 µM'),
  ('CCCCCCCCCCCCOCCCOP(=O)([O-])OCC[N+](C)(C)C', '37.4 µM'),
  ('COc1cc2c(=O)cnoc2cc1O', '> 100 µM'),
  ('C[N+](C)(C)CC(=O)N/N=C(\C(=O)NC1=C(Cl)C(=O)c2ccccc2C1=O)C(C#N)c1csc(-c2ccc([N+](=O)[O-])cc2)n1 (stereo not given)', '> 100 µM'),
  ('CN(C)C(=O)OC(Cn1cncn1)(Cn1cncn1)c1ccc(Cl)cc1Cl', '> 100 µM'),
  ('COc1ccccc1CNCCCN1C(=O)c2ccc3c4c(ccc(c24)C1=O)C(=O)N(CCCCNCCCN)C3=O', '9.35 µM'),
  ('SCCSCCCSCCS', '> 100 µM'),
  ('COc1ccc(N2C=Nn3c(nc4sc5c(c4c3=O)CCCC5)C2)cc1', '20.7 µM');

The reported value for COc1ccc(C2SCC(=O)N2NC(=O)c2ccc(NC(C)=O)cc2)cc1 (stereo not given) in terms of TGI is > 100 µM

The reported value for O=C1C(Cl)C(c2ccccc2O)N1n1cnc2ccccc2c1=O (stereo not given) in terms of TGI is > 100 µM

---

# System: IGROV1 ovarian
# Test Method Notes: NCI tumour cell line growth inhibition, 48 h
Observable: TGI

INSERT INTO assay_data (compound, target_desc, observable, observed) VALUES
  ('CCOC(=O)C(NC(=O)c1ccccc1)(N1CCOCC1)C(F)(F)F (stereo not drawn)', 'IGROV1 ovarian', 'TGI', '> 100 µM'),
  ('O=[N+]([O-])c1ccc(C=NCC2CCCN3CCCCC23)cc1 (stereo not drawn)', 'IGROV1 ovarian', 'TGI', '> 100 µM'),
  ('CC(C)(C)C(=O)OC12/C(=N/O)CCCCCC1c1ccccc12 (stereo not drawn)', 'IGROV1 ovarian', 'TGI', '29.6 µM'),
  ('O=Cc1ccc(-c2ccc(-c3nc4ccccc4o3)cc2)o1', 'IGROV1 ovarian', 'TGI', '> 100 µM'),
  ('COc1ccc(C2SCC(=O)N2NC(=O)c2ccc(NC(C)=O)cc2)cc1 (stereo not drawn)', 'IGROV1 ovarian', 'TGI', '> 100 µM');

The reported value for FC1C2=C(SC1(F)F)C1CCC2C1 (stereo not drawn) in terms of TGI is > 100 µM

The reported value for Cc1cc(=O)oc2c(C)c(OCCCOc3ccc4c(C)cc(=O)oc4c3C)ccc12 in terms of TGI is > 100 µM

The reported value for CN(Cc1cc(Cl)cc(Cl)c1)CC(C(=O)c1ccccc1)c1ccccc1 (stereo not drawn) in terms of TGI is > 58.3 µM

The reported value for CCN(CC)CCCC(C)N=C(C1=C(C(=NC(C)CCCN(CC)CC)c2cccc(OC)c2)C(=O)NC1=O)c1cccc(OC)c1 (stereo not drawn) in terms of TGI is 20.6 µM

The reported value for CN1C(=O)N[C@H]2[C@@H]3NC(=O)c4ccc(Br)n4[C@@H]3C[C@]21O in terms of TGI is 1.6 µM

The reported value for Cc1ccc(C)c(C2NC(=O)c3ccccc3N2)c1 (stereo not drawn) in terms of TGI is > 100 µM

The reported value for COC(=O)c1cnc(Cl)cn1 in terms of TGI is 97.1 µM

The reported value for COC(=O)c1cc(O)c2c(c1C(=O)OC)C[C@H]1[C@@H]3CC=C4C[C@@H](O)CC[C@]4(C)[C@H]3CC[C@]21C in terms of TGI is 15.9 µM

The reported value for COc1ccc(OC)c2c1[nH]c(=O)c1c3ncccc3cn21 in terms of TGI is > 100 µM

The reported value for CCc1cc(CCC(=O)Nc2c(C)cccc2C)[nH]n1 in terms of TGI is > 100 µM

The reported value for Cc1cc(S(=O)(=O)Nc2nc(N)nc(N(C)C)n2)c(SCC(=O)O)cc1Cl in terms of TGI is > 10 µM

The reported value for CC/C(CC(=O)CCC(=O)Nc1ccccc1[N+](=O)[O-])=N/NC(=O)C[n+]1ccccc1 in terms of TGI is > 100 µM

The reported value for COc1ccc(OC)c(NS(=O)(=O)c2ccc3nc(C)n(NS(=O)(=O)c4cc(OC)ccc4OC)c(=O)c3c2)c1 in terms of TGI is > 100 µM

The reported value for N#CCN/C=C\C(=O)c1ccc(Cl)cc1 in terms of TGI is > 100 µM

---

Listing of recorded TGI by entry.
# System: MALME-3M melanoma
# Test Method Notes: NCI tumour cell line growth inhibition, 48 h

INSERT INTO results (compound, target_desc, observed) VALUES
  ('CN/N=C(\C)C(CN(C)C)C(c1ccccc1)c1c(O)c2ccccc2oc1=O (configuration not stated)', 'MALME-3M melanoma', '> 100 µM'),
  ('COc1cc(Nc2nc3ccccc3cc2C(=O)Nc2ccc(F)c(F)c2)cc(OC)c1OC', 'MALME-3M melanoma', '6.41 µM'),
  ('CC(=O)OC1CC2C(C)(C)C(=O)C=C[C@]2(C)C2CCC3(C)C(=CC(=O)C3c3ccoc3)[C@]12C (some centres not stated)', 'MALME-3M melanoma', '34.4 µM'),
  ('O=C(OCc1ncc(-c2ccc(C(F)(F)F)cc2)c(NC2CCCCCC2)n1)c1c(F)c(F)c(F)c(F)c1F', 'MALME-3M melanoma', '32.6 µM');

The reported value for O=S1Nc2c(Cl)cc(Cl)c3c(Cl)cc(Cl)c(c23)N1 in terms of TGI is > 100 µM

The reported value for Oc1ccc(Cl)cc1CN1CCN(Cc2cc(Cl)ccc2O)C1 in terms of TGI is 8.29 µM

The reported value for CC(=O)OCC1OC(Oc2cc(C)c(O)cc2C/C=C(\C)CC/C=C(\C)CC(=O)CC(C)C)C(O)C(OC(C)=O)C1OC(C)=O (configuration not stated) in terms of TGI is > 50 µM

---

Listing of recorded TGI by entry.
# System: 786-0 renal
# Test Method Notes: NCI tumour cell line growth inhibition, 48 h

INSERT INTO results (molecule, observed) VALUES
  ('NC(=O)c1cccc(Nc2nccc(Nc3cccc4[nH]ncc34)n2)c1', '> 25 µM');

The reported value for c1csc(C[N+]23CN4CN(CN(C4)C2)C3)c1 in terms of TGI is 58.8 µM

The reported value for CC(C)(C)CC(C)(C)NCc1cc(C(C)(C)C)cc(CNC(C)(C)CC(C)(C)C)c1O in terms of TGI is 14.4 µM

The reported value for CC1(C)C2CC(=O)C1(C)C(OCc1ccccc1)C2 (stereo unspecified) in terms of TGI is > 100 µM

The reported value for CC(C)=CCC/C(C)=C/CC/C(C)=C/CC/C(=C/CC/C(C)=C\CC/C(C)=C/CC/C(C)=C/CC/C(C)=C/Cc1cc(O)ccc1O)CO in terms of TGI is 9.66 µM

The reported value for CC(C)(C)C1CCC2c3c([nH]c4ccccc34)C3C(=O)N(c4ccccc4)C(=O)C3C2C1 (stereo unspecified) in terms of TGI is 26 µM

The reported value for CC1=Nc2sc3c(c2C2=NCCN12)CCCC3 in terms of TGI is 46 µM

---

# Tested on: SF-268 CNS
# Test Method Notes: NCI tumour cell line growth inhibition, 48 h
Observable: TGI

INSERT INTO assay_data (compound, observed) VALUES
  ('Cc1cc(N2CCSCC2)nc(NC2CCCC(Nc3ccnc4cc(Cl)ccc34)C2)n1 (stereo not drawn)', '3.13 µM'),
  ('O=c1c(Cl)c(Cl)c(=O)c2sc3cc(Cl)ccc3[nH]c1=2', '> 100 µM'),
  ('COc1ccc(CN=C(N)N)c2ccccc12', '38.8 µM'),
  ('Nc1nn2c(nc(N)c3c(N)[nH]nc32)c1N=Nc1ccc(Br)cc1', '36.1 µM'),
  ('Cc1ccc(C)c(C2NC(=O)c3ccccc3N2)c1 (stereo not drawn)', '> 100 µM');

Given the compound CCOC(=O)CC(=O)Nc1cccc2[nH]cnc12 and test system SF-268 CNS, the measured TGI is > 100 µM

Given the compound COc1cc2c(=O)cnoc2cc1O and test system SF-268 CNS, the measured TGI is > 100 µM

Given the compound CN(/N=C/c1ccnc2ccccc12)c1ccc(Cl)cc1[N+](=O)[O-] and test system SF-268 CNS, the measured TGI is > 100 µM

Given the compound COc1cccc(C2c3cc4c(cc3OC(N3CCCC3)C2C)OCO4)c1O (stereo not drawn) and test system SF-268 CNS, the measured TGI is 70.1 µM

Given the compound CCC(CNc1cc(OC)cc2cccnc12)NC1CCCCC1 (stereo not drawn) and test system SF-268 CNS, the measured TGI is > 100 µM
